The reported numbers originate from PubChem BioAssay AID1159580.

# Procedure details: chemical genetic growth profiling, strain panel (AID 1159580);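 further: tested at 20 µM; growth read once vehicle control cultures reached saturation at 30 °C; 1 = growth at the plate median or of vehicle wells; lower values mean less growth of the strain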
# Setup conditions: S. cerevisiae deletion strains, growth OD, locus YPR025C, strain CCL1, hits give low values
The whole screen tested about 5,500 compounds, of which about 2,000 (36%) were called active. Roughly 18% stayed inconclusive and do not appear here. The list shows a part of the results.
Measured quantity: normalized growth

CSc1n[nH]c(-c2cc(C(C)(C)C)oc2C)c1C#N: 0.948 (inactive)
Cc1ccc(-n2cccc2)c(NS(=O)(=O)c2ccc(-c3ccno3)s2)c1: 0.95 (inactive)
Cc1nn(-c2cccc(Cl)c2)c2oc(=O)cc(C(F)(F)F)c12: 0.968 (inactive)
COC(=O)C1=C(Nc2ccccc2NS(=O)(=O)c2ccc(C(F)(F)F)cc2Cl)CSC1: 0.982 (inactive)
N#CSCC(=O)c1ccccc1: 0.0952 (active)

Q) Any idea what normalized growth was measured for COC(=O)c1sccc1NS(=O)(=O)c1cc(Cl)cc(Cl)c1 ?
A) 0.957 (inactive)

Q) Thanks! And O=[N+]([O-])c1cccc(C2CC(c3ccccc3)=Nc3ccccc3S2)c1 (configuration not stated) ?
A) 0.954 (inactive)

====

Quick list: normalized growth per entry.
# Procedure details: chemical genetic growth profiling, strain panel (AID 1159580);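 further: tested at 20 µM; growth read once vehicle control cultures reached saturation at 30 °C; 1 = growth at the plate median or of vehicle wells; lower values mean less growth of the strain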
# Setup conditions: S. cerevisiae deletion strains, growth OD, locus YOR329C, strain SCD5, hits give low values
Screen size: about 5,500 compounds; about 2,000 (36%) were called active. Not shown: some 18% with an inconclusive outcome. Some of the results follow.
Just the number, please, no unit after it.

O=C(Nc1ccc(F)cc1F)c1cc(Cl)c(-n2cccc2)c(Cl)c1: 0.968
O=C(CSC1=NNC(c2ccccn2)S1)Nc1ccccc1 (stereo unspecified): 1
Cc1nn(-c2cccc(Cl)c2)c2oc(=O)cc(C(F)(F)F)c12: 0.964
CC(=O)c1ccc(Cl)c(N=Cc2cc(Br)cc(Br)c2O)c1: 0.0861
COC(=O)C1=C(Nc2ccccc2NS(=O)(=O)c2ccc(C(F)(F)F)cc2Cl)CSC1: 0.985

Q) Any idea what normalized growth was measured for OC(COc1ccc(F)cc1)(c1ccc(Cl)cc1)c1ccc(Cl)cc1 ?
A) 0.984

Q) Thanks! And CC(C)(C)c1cc(C(=O)NNc2cccc(Cl)c2)n(Cc2ccccc2)n1 ?
A) 0.978

Q) Thanks! And O=C(Nc1cccc(Cl)c1)O/N=C1\CCCc2occc21 ?
A) 0.959

Q) Thanks! And CCOC(=O)/C(C#N)=C(\Nc1ccc(C(=O)OCC)cc1)SC ?
A) 0.98

Q) Thanks! And CSc1n[nH]c(-c2cc(C(C)(C)C)oc2C)c1C#N ?
A) 0.948

Q) Thanks! And CSc1sc(C(=O)Sc2ccccc2)cc1S(=O)(=O)C(C)C ?
A) 0.994

====

# Procedure details: chemical genetic growth profiling, strain panel (AID 1159580);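 further: tested at 20 µM; growth read once vehicle control cultures reached saturation at 30 °C; 1 = growth at the plate median or of vehicle wells; lower values mean less growth of the strain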
# Setup conditions: S. cerevisiae deletion strains, growth OD, locus YLL041C, strain sdh2, hits give low values
In all, about 5,500 compounds went through this assay and about 2,000 (36%) were called active. Roughly 18% stayed inconclusive and do not appear here. This is one part of the list.
Quick list: normalized growth per entry.
Just the number, please, no unit after it.

Q) Any idea what normalized growth was measured for CC(=O)Nc1ccc(S(=O)(=O)Nc2onc(C)c2C)cc1 ?
A) 0.978

Q) Thanks! And CCN(CC)CCOC(=O)C1(C2CCCCC2)CCCCC1 ?
A) 0.987

Q) Thanks! And N[C@@H](CCC(=O)N[C@@H](CS)C(=O)NCC(=O)O)C(=O)O ?
A) 1

Q) Thanks! And CC(C)(C)NCC(O)c1ccc(O)c(CO)c1 (stereo not given) ?
A) 1.02
